Hey, just so you know, these numbers are from patent US20240391954A1.

Here the recorded MC4R selectivity vs MC3R is given for each entry.
measuredTarget: human MC4R receptor (human, UniProt P32245 1-332)
Sequence (P32245 whole entry): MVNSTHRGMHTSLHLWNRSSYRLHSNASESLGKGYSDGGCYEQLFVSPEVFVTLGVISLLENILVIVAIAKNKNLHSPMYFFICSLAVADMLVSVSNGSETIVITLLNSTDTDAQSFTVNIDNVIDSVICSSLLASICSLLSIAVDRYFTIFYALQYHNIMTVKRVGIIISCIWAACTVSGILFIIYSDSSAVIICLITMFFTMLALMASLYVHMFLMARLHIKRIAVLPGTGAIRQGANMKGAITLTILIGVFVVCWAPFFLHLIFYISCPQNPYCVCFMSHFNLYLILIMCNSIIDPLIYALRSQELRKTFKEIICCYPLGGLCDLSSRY
protocol: cell-based or functional assay
Positions of bridges follow the written chain, without caps; N, C: chain ends. Non-standard residues stand in square brackets, D forms with d. 4Pal = N[C@@H](Cc1ccncc1)C(=O)O; Cit = NC(=O)NCCC[C@H](N)C(=O)O; Nle = CCCC[C@H](N)C(=O)O; Orn = NCCC[C@H](N)C(=O)O; Aib = CC(C)(N)C(=O)O
recordedMetric: MC4R selectivity vs MC3R

binder: Ac-C[Aib]R[dF]RFC-NH2 (disulfide 1-7; SMILES CC(=O)N[C@H]1CSSC[C@@H](C(N)=O)NC(=O)[C@H](Cc2ccccc2)NC(=O)[C@H](CCCNC(=N)N)NC(=O)[C@@H](Cc2ccccc2)NC(=O)[C@H](CCCNC(=N)N)NC(=O)C(C)(C)NC1=O) [CTX-1635]
recordedMetric: MC4R selectivity vs MC3R
quantitativeResult: 5.7

binder: Ac-CGR[dF]RFC-NH2 (disulfide 1-7; SMILES CC(=O)N[C@H]1CSSC[C@@H](C(N)=O)NC(=O)[C@H](Cc2ccccc2)NC(=O)[C@H](CCCNC(=N)N)NC(=O)[C@@H](Cc2ccccc2)NC(=O)[C@H](CCCNC(=N)N)NC(=O)CNC1=O) [CTX-1638]
recordedMetric: MC4R selectivity vs MC3R
quantitativeResult: 1.66

binder: Ac-R[Nle]C[4Pal][dF]RWC-NH2 (disulfide 3-8; SMILES CCCC[C@H](NC(=O)[C@H](CCCNC(=N)N)NC(C)=O)C(=O)N[C@H]1CSSC[C@@H](C(N)=O)NC(=O)[C@H](Cc2c[nH]c3ccccc23)NC(=O)[C@H](CCCNC(=N)N)NC(=O)[C@@H](Cc2ccccc2)NC(=O)[C@H](Cc2ccncc2)NC1=O) [CTX-1621]
recordedMetric: MC4R selectivity vs MC3R
quantitativeResult: 13

binder: Ac-RCG[Cit][dF]RWC-NH2 (disulfide 2-8) [CTX-1294]
recordedMetric: MC4R selectivity vs MC3R
quantitativeResult: 11

binder: Ac-RC[dA]R[dF]R[dW]C-NH2 (disulfide 2-8; SMILES CC(=O)N[C@@H](CCCNC(=N)N)C(=O)N[C@H]1CSSC[C@@H](C(N)=O)NC(=O)[C@@H](Cc2c[nH]c3ccccc23)NC(=O)[C@H](CCCNC(=N)N)NC(=O)[C@@H](Cc2ccccc2)NC(=O)[C@H](CCCNC(=N)N)NC(=O)[C@@H](C)NC1=O) [CTX-1263]
recordedMetric: MC4R selectivity vs MC3R
quantitativeResult: 1.62

binder: Ac-R[Nle]C[Orn][dF]RWC-NH2 (disulfide 3-8; SMILES CCCC[C@H](NC(=O)[C@H](CCCNC(=N)N)NC(C)=O)C(=O)N[C@H]1CSSC[C@@H](C(N)=O)NC(=O)[C@H](Cc2c[nH]c3ccccc23)NC(=O)[C@H](CCCNC(=N)N)NC(=O)[C@@H](Cc2ccccc2)NC(=O)[C@H](CCCN)NC1=O) [CTX-1617]
recordedMetric: MC4R selectivity vs MC3R
quantitativeResult: 11
